system: Saccharomyces cerevisiae; experiment: protein stability index of tFT-peptide fusion (C-terminal peptide) (PSI (0-1 scale)); higher = more stable (slower turnover); conditions: genetic background: das1 deletion; temperature: 30 C
measurement-type: protein stability index

# sequence-entry, quantitative-readout
data = [
    ("GETSSSSAVAEV [AQY1 C-terminal 12 aa]", 0.687),
    ("VVEALRDAVGDV [NBP35 C-terminal 12 aa]", 0.706),
    ("KPGTIIHFSTNR [ASK1 C-terminal 12 aa]", 0.713),
    ("QRVIKPSSALQF [ECM7 C-terminal 12 aa]", 0.706),
    ("NTHDLHLRPGTY [YBL005W-A C-terminal 12 aa]", 0.679),
    ("AVERLKLLKDYL [BNA3 C-terminal 12 aa]", 0.685),
    ("LLLKVEKKGSKK [HTZ1 C-terminal 12 aa]", 0.706),
    ("LIGGVGLSIWKK [RTT10 C-terminal 12 aa]", 0.707),
    ("DEKLHSHNASPN [YNL198C C-terminal 12 aa]", 0.679),
    ("KGVIGTNPPITH [MPC3 C-terminal 12 aa]", 0.704),
    ("YDEDEGSDYDFI [SUP45 C-terminal 12 aa]", 0.699),
    ("MKTRLERERGLV [PTC4 C-terminal 12 aa]", 0.694),
    ("SSTGTPEHDQDT [EUC1 C-terminal 12 aa]", 0.69),
    ("NAEKAAGQKKED [YLL053C C-terminal 12 aa]", 0.695),
    ("SGAGARGSSAAA [LYS2 C-terminal 12 aa]", 0.702),
    ("DLMISCLMNQET [MTR3 C-terminal 12 aa]", 0.712),
    ("NAIEEELAKMKL [THR4 C-terminal 12 aa]", 0.692),
    ("HGTAKALAAAKK [RPL29 C-terminal 12 aa]", 0.71),
    ("RDVLDDGSNIMS [IAH1 C-terminal 12 aa]", 0.682),
]

----------
tested on: Saccharomyces cerevisiae; assay: protein stability index of tFT-peptide fusion (C-terminal peptide) (PSI (0-1 scale)); higher = more stable (slower turnover); conditions: genetic background: wild type; temperature: 30 C

# sequence-entry, protein stability index
data = [
    ("IVGGDSVSALRG", 0.643),
    ("PPYRVVLPLFVP", 0.508),
    ("TKKSKRKREQAE", 0.68),
    ("GVVGVQTLIISN", 0.653),
    ("GARRSAVPWSPK", 0.723),
    ("HSVPSCPKFSII", 0.667),
    ("TICVILNGVGYS", 0.625),
    ("FFPRVLRLRYPS", 0.754),
    ("LSTTQSKTLNPR", 0.682),
    ("GRPSSMCTGWKV", 0.74),
    ("VRVVGVSGGEGG", 0.644),
    ("PPPPFSPPPPSA", 0.7),
    ("SLVLPPRPFPPF", 0.746),
    ("LEPSDMDTDSDG", 0.706),
    ("GPVVHSAPRVRL", 0.686),
    ("DVVGRGRGPVRL", 0.802),
    ("ATVPLVTPLPHF", 0.697),
    ("SPRPIKCRPLLI", 0.62),
    ("RSGGSSPRRLFT", 0.7),
    ("PSCPAFPSPPPS", 0.696),
    ("RVSWRLSYLCPV", 0.694),
    ("GCSVSLCCVFVV", 0.372),
    ("PPPPPFSPLFLP", 0.698),
    ("CCVSLQSNLLFS", 0.68),
    ("LLAGGDVSGVGV", 0.695),
    ("TKTIKPNKKATV", 0.655),
    ("TLFLFVSSFCMG", 0.47),
    ("APPPPPPLLLSF", 0.626),
    ("GRCLGREGVCGL", 0.673),
    ("SLPSSVAFLFPR", 0.802),
    ("KRKDKKKKYIRK", 0.759),
    ("NKKRKYRKNKRG", 0.61),
    ("RPELRRETARVR", 0.644),
    ("ITKELHEGEYLY", 0.727),
    ("RSTRLPGFNRRE", 0.662),
    ("SPVQHPKHIQPG", 0.656),
    ("YGGDMHGNNFSG", 0.701),
    ("PPLGITHPSFPS", 0.787),
    ("HVPHFCLSPTII", 0.758),
    ("PPSPPPPPPPPL", 0.7),
    ("GGSRGGTFLWGP", 0.672),
    ("RARPGKATSAFH", 0.73),
    ("LISLERRGVAGR", 0.657),
    ("QKERENKHTEIE", 0.645),
    ("RVVWVWLMSALF", 0.54),
    ("LYHFYTASPCLI", 0.536),
    ("VRFVVRVFQCSF", 0.466),
    ("LTGESGDRSVGP", 0.657),
    ("IRETTYSRPFQL", 0.695),
    ("SPSCFFIFALPC", 0.605),
]
